Reference source: the supplement of paper PMC13207355

Tested on: E28 (patient-derived glioblastoma stem cells of classical subtype);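 note: cell Painting imaging in 384-well plates, CellProfiler features reduced to at least 20 principal components, Euclidean distance versus same-plate DMSO vehicle wells (0.1% v/v), median over six images per well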
protocol-description: phenotypic distance (Euclidean, principal components) from DMSO controls (arbitrary units); higher = stronger morphological change
cond: 111.1111111 nM; exposure time: 72 h
Structures can show the parent of a compound that is named as a salt.

molecule	phenotypic distance
O=c1c2ccccc2[se]n1-c1ccccc1	0.529
COc1cc2nc(N3CCN(C(=O)c4ccco4)CC3)nc(N)c2cc1OC [Prazosin hydrochloride]	0.589
COC(=O)[C@@H]1[C@H]2C[C@H]3c4[nH]c5ccccc5c4CCN3C[C@@H]2CC[C@@H]1O [Yohimbine hydrochloride]	0.639
C[C@@H](O)[C@H]1C(=O)N2C(C(=O)O)=C(S[C@@H]3CN[C@H](C(=O)N(C)C)C3)[C@H](C)[C@H]12	0.706
